- assay.name: AUC (infinity) in Crl:CD/SD IGS, CRJ rat at 3 mg/kg, po by LC-MS/MS analysis
- Type: ADME, organism-based
- Parameters: dose 3 mg/kg, time infinity, route oral
- condition.parameters: in vivo
observation.type: AUC(0-inf) (ng·h/mL)
All answers are understood in ng·h/mL, so give the number only.

Fill in the blank: the reported AUC(0-inf) of `Cc1cc(N(C)C(N)=O)cc(C)c1CCS(=O)(=O)N1CCC2(CC1)N=C([C@H]1CC[C@H](C)CC1)NC2=O` is ____.
2650

----------
- assay.name: Solubility of the compound in PBS at pH 6.5 at 1 mM by HPLC-UV analysis
- Assay type: physicochemical
- condition.parameters: PBS, pH 6.5
observation.type: solubility at 1000 µM (µg/mL)
Please give a number only; it is taken to be in µg/mL.

Reference set, count: 3
Cc1cc(N(C)C(N)=O)cc(C)c1CCS(=O)(=O)N1CCC2(CC1)N=C([C@H]1CC[C@H](C)CC1)NC2=O; 99
Cc1ccccc1CCS(=O)(=O)N1CCC2(CC1)N=C(C1CCCCC1)NC2=O; 11
Cc1cc(N(C)C(N)=O)cc(C)c1CCS(=O)(=O)N1CCC2(CC1)N=C(C1CCCCC1)NC2=O; 290

Fill in the blank: the reported solubility at 1000 µM of `CC(=O)Nc1cc(C)c(CCS(=O)(=O)N2CCC3(CC2)N=C(C2CCCCC2)NC3=O)c(C)c1` is ____.
8

Using the record for `CC(=O)Nc1ccc(CCS(=O)(=O)N2CCC3(CC2)N=C(C2CCCCC2)NC3=O)c(C)c1` , report its solubility at 1000 µM.
280
